Test system: Mus musculus
MEASUREMENT PROTOCOL: Toxicity in mouse P388 cells allografted mouse at 30 mg/kg, ip qd for 9 days
Type: organism-based
Set-up: dose 30 mg/kg, route intraperitoneal
MEASUREMENT SETUP: in vivo, 216 h
# maps each entry to its Activity
# number only, unit % dropped from output

The cases that follow already have their Activity on record.
INSERT INTO results (mol_smiles, assay_result) VALUES
  ('CN(C)/N=N\c1ccnc2cc(Cl)ccc12', -16.3),
  ('CN(C)/N=N\c1ccnc2c(Br)cccc12', 4.8);

Entry under review: CN(C)/N=N\c1ccnc2c(Cl)cccc12 . Reported Activity?
-15

Recorded Activity for CN(C)/N=N\c1ccnc2cc(Br)ccc12 , please?
-2.4

GET /values?readout=Activity&item= CN(C)/N=N\c1ccnc2ccc(Cl)cc12
-12.9

---

Tested on: Mus musculus
MEASUREMENT PROTOCOL: Toxicity in mouse L1210 cells allografted mouse at 40 mg/kg, ip qd for 9 days
Type: organism-based
Set-up: dose 40 mg/kg, route intraperitoneal
MEASUREMENT SETUP: in vivo, 216 h
Entries and their Activity
Just the number in %, nothing appended.

Previously resolved entries follow.
INSERT INTO measurements (mol_smiles, unit_info, assay_result) VALUES
  ('CN(C)/N=N\c1ccnc2ccc(Br)cc12', '%', -5.8),
  ('CN(C)/N=N\c1ccnc2cc(Br)ccc12', '%', -2.8),
  ('CN(C)/N=N\c1ccnc2c(Cl)cccc12', '%', -4.9);

Endpoint output: Activity of CN(C)/N=N\c1ccnc2c(Br)cccc12 . Value?
-5.9

---

System: Mus musculus
MEASUREMENT PROTOCOL: Toxicity in mouse P388 cells allografted mouse at 40 mg/kg, ip qd for 9 days
Format: organism-based
Parameters: dose 40 mg/kg, route intraperitoneal
MEASUREMENT SETUP: in vivo, 216 h
# Lookup of reported Activity keyed by entry
Answer format: numeric, % implied, no suffix.

INSERT INTO assay_data (mol_smiles, assay_system, unit_info, assay_result) VALUES
  ('CN(C)/N=N\c1ccnc2cc(I)ccc12', 'Mus musculus', '%', 5.7),
  ('CN(C)/N=N\c1ccnc2ccc(Br)cc12', 'Mus musculus', '%', -3.5),
  ('CN(C)/N=N\c1ccnc2ccc(I)cc12', 'Mus musculus', '%', 10.5),
  ('CN(C)/N=N\c1ccnc2c(Br)cccc12', 'Mus musculus', '%', -3.3),
  ('CN(C)/N=N\c1ccnc2cc(Br)ccc12', 'Mus musculus', '%', -8.9);

# context switch: different molecule, same Activity
Which Activity is reported for this molecule? CN(C)/N=N\c1ccnc2cc(Cl)ccc12
-22.6

---

Some compounds, each annotated with its measured T/C.
Test system: P388
MEASUREMENT PROTOCOL: Antitumor activity against mouse P388 cells allografted mouse assessed as host survival at 20 mg/kg, ip qd for 9 days relative to control
Type: functional
MEASUREMENT SETUP: route intraperitoneal
Your answer is read as %, so omit the unit and give the number.

INSERT INTO results (mol_smiles, assay_result) VALUES
  ('CN(C)/N=N\c1ccnc2cc(I)ccc12', 117);

Data request, read-out T/C, for CN(C)/N=N\c1ccnc2ccc(Br)cc12
123

Which T/C reading was recorded for the compound CN(C)/N=N\c1ccnc2ccc(Cl)cc12 ?
139

Given CN(C)/N=N\c1ccnc2c(Cl)cccc12 , state its recorded T/C.
172

I would be grateful if you could share the reported T/C for CN(C)/N=N\c1ccnc2c(Br)cccc12 .
109

---

// values below are reported Activity
System: Mus musculus
MEASUREMENT PROTOCOL: Toxicity in mouse L1210 cells allografted mouse at 30 mg/kg, ip qd for 9 days
Type: organism-based
Design: dose 30 mg/kg, route intraperitoneal
MEASUREMENT SETUP: in vivo, 216 h
Note: unit % is implicit; provide only the numeric part.

Consider the reported Activity for these compounds:
INSERT INTO assay_data (mol_smiles, unit_info, assay_result) VALUES
  ('CN(C)/N=N\c1ccnc2c(Cl)cccc12', '%', 0),
  ('CN(C)/N=N\c1ccnc2ccc(Cl)cc12', '%', -10),
  ('CN(C)/N=N\c1ccnc2ccc(Br)cc12', '%', -1),
  ('CN(C)/N=N\c1ccnc2cc(Cl)ccc12', '%', -1),
  ('CN(C)/N=N\c1ccnc2c(Br)cccc12', '%', 6.1);

We next turn to a different compound, shown below.
What does the record list as Activity for CN(C)/N=N\c1ccnc2cc(Br)ccc12 ?
10

---

compounds and their reported Activity
Tested on: Mus musculus
MEASUREMENT PROTOCOL: Toxicity in mouse P388 cells allografted mouse at 20 mg/kg, ip qd for 9 days
Assay type: organism-based
Set-up: dose 20 mg/kg, route intraperitoneal
MEASUREMENT SETUP: in vivo, 216 h
Your answer is read as %, so omit the unit and give the number.

What does the data say about its Activity? Entry: CN(C)/N=N\c1ccnc2c(Br)cccc12
16

Fill in: Activity of CN(C)/N=N\c1ccnc2c(Cl)cccc12 is ___
-2.1

Suppose we examine the compound CN(C)/N=N\c1ccnc2cc(I)ccc12 ; what Activity value has been reported?
10.8

// Activity lookup, key: CN(C)/N=N\c1ccnc2ccc(Cl)cc12
0.8

For the compound shown here, CN(C)/N=N\c1ccnc2ccc(Br)cc12 , give the reported Activity.
18
